In this section, each of the compounds is paired with its reported pIC50.
system: VCaP cells; assay: Inhibition of proliferation of VCaP cells (WST-8, 168 hours); type: cell-based
Please express pIC50 as -log10 of the molar concentration.

COMPOUND: COC1(CN2CCC3(CCc4cc5c(cc4O3)C(=O)N(C3CCC(=O)NC3=O)C5)CC2)CCN(c2ccc(N3CCC4(CC3)C[C@H](C)N(c3ccc(C#N)c(Cl)c3)C4)cc2)CC1 (some centres unmarked)
pIC50: 8.15

Query: pIC50; subject: C[C@H]1CC2(CCN(c3ccc(N4CCC(C)(CN5CCC6(CCc7cc8c(cc7O6)C(=O)N(C6CCC(=O)NC6=O)C8)CC5)CC4)cc3)CC2)CN1c1ccc(C#N)c(Cl)c1 (some centres unmarked)
8.00

###

biological target: ERα (Homo sapiens, UniProt P03372); assay: Degradation of ERα in MCF-7 cells (immunoblotting, 4 h); assay type: cell-based; conditions: 10nM compound
OBSERVED_PROPERTY: Degradation rate (%) of ERα in MCF-7 cells
Unit % implied. Number only.

COMPOUND: O=C1CCC(N2Cc3cc4c(cc3C2=O)OCC2(CCN(CC3CCC5(CC3)CCN(c3ccc([C@@H]6c7ccc(O)cc7CC[C@@H]6c6ccccc6)cc3)CC5)CC2)O4)C(=O)N1 (some centres unmarked)
UNIT_SYMBOL: %
MEAS_VALUE: -27

Give the measured Degradation rate (%) of ERα in MCF-7 cells of O=C1CCC(N2Cc3cc4c(cc3C2=O)OC2(CC4)CN(C3CCC4(CC3)CN(c3ccc([C@@H]5c6ccc(O)cc6CC[C@@H]5c5ccccc5)cc3)C4)C2)C(=O)N1 (some centres unmarked) .
17

Which measured Degradation rate (%) of ERα in MCF-7 cells value corresponds to O=C1CCC(N2Cc3c(ccc4c3OC3(CC4)CCN(C4CN(C5CCN(c6ccc([C@@H]7c8ccc(O)cc8CC[C@@H]7c7ccccc7)cc6)CC5)C4)CC3)C2=O)C(=O)N1 (some centres unmarked) ?
3

# input compound: C[C@@H]1Cc2c(ccc3[nH]ncc23)[C@@H](c2c(F)cc(N3CCC4(CCN(C(=O)CN5CCC6(CC5)COc5c6ccc6c5CN(C5CCC(=O)NC5=O)C6=O)C4)CC3)cc2F)N1CC(F)F (some centres unmarked) ; wanted: its Degradation rate (%) of ERα in MCF-7 cells
55

Entry under review: O=C1CCC(N2Cc3c(ccc4c3OCC43CCN(C4CCN(C(=O)C5CC6(CCN(c7ccc([C@@H]8c9ccc(O)cc9CC[C@@H]8c8ccccc8)cc7)CC6)C5)CC4)CC3)C2=O)C(=O)N1 (some centres unmarked) . Reported Degradation rate (%) of ERα in MCF-7 cells?
65

###

Parameter: Degradation rate (%) of ERα in MCF-7 cells. Scope: all listed entries.
Molecular target: ERα (Homo sapiens)
Sequence (P03372 1-595): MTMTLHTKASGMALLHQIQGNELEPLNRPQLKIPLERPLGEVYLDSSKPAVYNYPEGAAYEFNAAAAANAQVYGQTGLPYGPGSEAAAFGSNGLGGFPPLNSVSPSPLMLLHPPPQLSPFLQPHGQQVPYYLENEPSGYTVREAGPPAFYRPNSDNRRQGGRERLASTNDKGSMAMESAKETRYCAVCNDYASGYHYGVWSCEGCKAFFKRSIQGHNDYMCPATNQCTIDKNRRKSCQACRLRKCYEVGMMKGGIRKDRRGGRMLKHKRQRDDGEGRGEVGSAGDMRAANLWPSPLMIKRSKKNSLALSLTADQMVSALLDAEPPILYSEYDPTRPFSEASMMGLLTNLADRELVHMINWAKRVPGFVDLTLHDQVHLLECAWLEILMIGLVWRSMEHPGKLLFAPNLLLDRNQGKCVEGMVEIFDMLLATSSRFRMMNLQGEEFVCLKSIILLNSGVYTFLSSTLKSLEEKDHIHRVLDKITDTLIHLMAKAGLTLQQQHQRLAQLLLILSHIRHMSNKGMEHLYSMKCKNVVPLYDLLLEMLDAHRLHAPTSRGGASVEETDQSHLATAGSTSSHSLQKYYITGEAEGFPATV
Assay: Degradation of ERα in MCF-7 cells (immunoblotting, 4 h)
Format: cell-based
Conditions: 10nM compound
Description: MCF-7 cells were inoculated into 6-well plates at a density of 3×10^5 cells/well and cultured at 37°C, 5% CO2 for 24h. […] Protein immunoblotting: The total protein concentration in the collected cell lysate supernatant was determined by BCA Protein Concentration Assay Kit (Enhanced) (P0009, Beyotime). […] Protein profiles were analyzed by Image Studio Lite analysis software for grayscale values. […]
Provide only the numeric value, understood in %.

Reported Degradation rate (%) of ERα in MCF-7 cells, compound O=C1CCC(N2Cc3c(ccc4c3OCC43CCN(C4CCN(C5CC6(CCN(c7ccc([C@@H]8c9ccc(O)cc9CC[C@@H]8c8ccccc8)cc7)CC6)C5)CC4F)CC3)C2=O)C(=O)N1 (some centres unmarked) : ____
76

What Degradation rate (%) of ERα in MCF-7 cells value was documented for this compound, O=C1CCC(N2C(=O)c3cc4c(cc3C2=O)OC2(CC4)CCN(CC3CN(c4ccc(C5c6ccc(O)cc6CCC5c5ccccc5)cc4)C3)CC2)C(=O)N1 (centres unmarked) ?
-17

Sample CN(C1CCN(c2ccc([C@@H]3c4ccc(O)cc4CC[C@@H]3c3ccccc3)cc2)CC1)[C@H]1CC[C@H](C(=O)N2CCC3(CC2)COc2c3ccc3c2CN(C2CCC(=O)NC2=O)C3=O)CC1 (some centres unmarked) — what was its Degradation rate (%) of ERα in MCF-7 cells?
-8

Given the entry O=C1CCC(N2Cc3cc4c(cc3C2=O)OC2(CC4)CN(C3CC4(CCC5(CC4)CN(c4ccc([C@@H]6c7ccc(O)cc7CC[C@@H]6c6ccccc6)cc4)C5)C3)C2)C(=O)N1 (some centres unmarked) , report its measured Degradation rate (%) of ERα in MCF-7 cells.
-11

Which Degradation rate (%) of ERα in MCF-7 cells reading was recorded for the compound O=C1CCC(N2Cc3c(ccc4c3OCC43CCN(CC4CCN(c5ccc([C@@H]6c7ccc(O)cc7CC[C@@H]6c6ccccc6)cc5)CC4)CC3)C2=O)C(=O)N1 (some centres unmarked) ?
-48
